Listed next: entries and their corresponding LE (ligand efficiency).
Subject of test: GST-tagged recombinant human full-length TTK protein kinase (Homo sapiens, UniProt P33981)
Construct: GST-tagged recombinant human full-length TTK protein kinase; purchased Invitrogen (Life Technologies Ltd., Paisley, U.K.)
Sequence (P33981 1-857): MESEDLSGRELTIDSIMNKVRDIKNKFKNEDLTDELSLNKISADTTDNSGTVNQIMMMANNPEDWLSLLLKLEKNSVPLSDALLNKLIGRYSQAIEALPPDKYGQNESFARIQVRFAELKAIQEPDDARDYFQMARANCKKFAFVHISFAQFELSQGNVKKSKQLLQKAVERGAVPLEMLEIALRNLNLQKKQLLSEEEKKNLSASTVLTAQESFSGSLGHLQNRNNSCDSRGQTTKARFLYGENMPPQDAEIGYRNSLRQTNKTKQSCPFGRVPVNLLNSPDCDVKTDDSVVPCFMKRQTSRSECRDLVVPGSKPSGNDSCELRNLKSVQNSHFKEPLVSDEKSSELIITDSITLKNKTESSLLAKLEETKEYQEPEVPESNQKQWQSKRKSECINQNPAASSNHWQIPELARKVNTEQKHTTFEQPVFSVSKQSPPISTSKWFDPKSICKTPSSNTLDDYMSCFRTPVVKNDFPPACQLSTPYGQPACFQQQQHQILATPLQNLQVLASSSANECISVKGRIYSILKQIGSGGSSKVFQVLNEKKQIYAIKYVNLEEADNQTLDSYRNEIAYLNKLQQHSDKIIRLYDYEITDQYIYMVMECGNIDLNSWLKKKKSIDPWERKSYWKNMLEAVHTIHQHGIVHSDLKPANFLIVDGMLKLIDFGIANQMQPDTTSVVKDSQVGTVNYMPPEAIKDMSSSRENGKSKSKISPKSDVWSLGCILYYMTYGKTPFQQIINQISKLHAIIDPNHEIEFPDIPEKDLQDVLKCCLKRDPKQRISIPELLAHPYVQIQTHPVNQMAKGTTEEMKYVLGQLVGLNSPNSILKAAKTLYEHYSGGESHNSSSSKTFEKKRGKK
Test details: TTK mobility shift microfluidics assay, IC50 determination (3 nM TTK)
Type: biochemical
Study conditions: from TTK IC50
Experimental endpoint: LE (ligand efficiency)

{"Compound": "COc1ccc(Nc2ncnc3[nH]ncc23)cc1OC", "Experimental endpoint": "LE (ligand efficiency)", "Value measured": 0.31}
{"Compound": "COc1ccc(Nc2ccc3nnnn3n2)cc1OC", "Experimental endpoint": "LE (ligand efficiency)", "Value measured": 0.28}
{"Compound": "COc1ccc(C(=O)c2oc3cc(NC(C)=O)ccc3c2C)cc1OC", "Experimental endpoint": "LE (ligand efficiency)", "Value measured": 0.28}
{"Compound": "COc1ccc(Nc2cc(-c3ccccc3)ncn2)cc1OC", "Experimental endpoint": "LE (ligand efficiency)", "Value measured": 0.30}
{"Compound": "COc1ccc(Nc2cc(Cl)nc(N)n2)cc1OC", "Experimental endpoint": "LE (ligand efficiency)", "Value measured": 0.30}
{"Compound": "c1ccc(-c2nc3cnccc3[nH]2)nc1", "Experimental endpoint": "LE (ligand efficiency)", "Value measured": 0.37}
{"Compound": "COc1ccc(Nc2ccc3nnc(C(F)(F)F)n3n2)cc1OC", "Experimental endpoint": "LE (ligand efficiency)", "Value measured": 0.23}
{"Compound": "COc1ccc(Nc2ncnc3c2cnn3C)cc1OC", "Experimental endpoint": "LE (ligand efficiency)", "Value measured": 0.31}
{"Compound": "c1ccc2c(c1)[nH]c1cncnc12 [Compound 4, 5H-pyrimido[5,4-b]indole]", "Experimental endpoint": "LE (ligand efficiency)", "Value measured": 0.44}
{"Compound": "COc1ccc(Nc2nc(N)nc3nc[nH]c23)cc1OC", "Experimental endpoint": "LE (ligand efficiency)", "Value measured": 0.33}

* * *

Subject of test: GST-tagged recombinant human full-length TTK protein kinase (Homo sapiens, UniProt P33981)
Construct: GST-tagged recombinant human full-length TTK protein kinase; purchased Invitrogen (Life Technologies Ltd., Paisley, U.K.)
Test details: TTK mobility shift microfluidics assay, single-concentration percent inhibition screen
Assay type: biochemical
Study conditions: compound at 40 μM; 12.5 nM TTK, 10 μM ATP, 1% DMSO; mean of duplicate ± SD
We begin with a simple list: items and their reported inhibition at 40 µM.
Experimental endpoint: inhibition at 40 µM (%)

{"Compound": "Nc1nnc2c([nH]c3ccccc32)c1-c1ccccc1 [Compound 2]", "Unit symbol": "%", "Value measured": 52}
{"Compound": "c1ccc2c(c1)[nH]c1cncnc12 [Compound 4, 5H-pyrimido[5,4-b]indole]", "Unit symbol": "%", "Value measured": 42.5}
{"Compound": "COc1ccc(Nc2nc(N)nc3nc[nH]c23)cc1OC [Compound 13]", "Unit symbol": "%", "Value measured": 72}
{"Compound": "COc1ccc(Nc2ncnc3[nH]ncc23)cc1OC [Compound 17]", "Unit symbol": "%", "Value measured": 69}
{"Compound": "COc1ccc(C(=O)c2oc3cc(NC(C)=O)ccc3c2C)cc1OC [Compound 12]", "Unit symbol": "%", "Value measured": 68.5}

* * *

Subject of test: GST-tagged recombinant human full-length TTK protein kinase (Homo sapiens)
Construct: GST-tagged recombinant human full-length TTK protein kinase; purchased Invitrogen (Life Technologies Ltd., Paisley, U.K.)
Test details: TTK mobility shift microfluidics assay, IC50 determination (3 nM TTK)
Format: biochemical
Study conditions: 1% DMSO; 3 nM TTK, 10 μM ATP; duplicate on the same plate
pIC50: −log10 of the molar value.

{"Compound": "COc1ccc(Nc2cc(C)nc3ncnn23)cc1OC [Compound 24]", "Subject of test": "GST-tagged recombinant human full-length TTK protein kinase (Homo sapiens)", "pIC50": "< 3.00"}
{"Compound": "COc1ccc(Nc2nc(Nc3ccc(OC)c(OC)c3)c3[nH]cnc3n2)cc1OC [Compound 22]", "Subject of test": "GST-tagged recombinant human full-length TTK protein kinase (Homo sapiens)", "pIC50": "> 7.60"}
{"Compound": "COc1ccc(NC(=O)c2nc[nH]n2)cc1OC [Compound 23]", "Subject of test": "GST-tagged recombinant human full-length TTK protein kinase (Homo sapiens)", "pIC50": "< 3.00"}
